For each of the sequences below, state its apparent KD of MS2 coat protein.
# System: MS2 coat protein
# procedure-summary: apparent KD of MS2 coat protein; designed switch direction (-1 OFF switch, 1 ON switch): -1; higher = weaker reporter binding
# experimental-parameters: Eterna round: R95; input ligand: microRNA oligo, concentration not stated
Give a bare numeral; the unit µM is implied.

Looking up AAGUACUACAAGCUUCGGGACAUGAGGAUCACCCAUGUUCGUCUUAUUGAUCUAGGUACGCUGACGUACCUAGAUCU [Mat - Sensor v3 - turn-off var 1 - JL Mod - D11] (puzzle: Sensor v3, turn-off variant 1) , I see its apparent KD of MS2 coat protein listed as 0.0392

Looking up GAGAAGGUAGGAUAUACGAAGAAAAAGGGUAGAAUAAUAACACAUGAGGAUCACCCAUGUAGAAGGACCAAGAG [Mat - Exclusion 2 - Mod of my Tesla design - D19] (puzzle: Exclusion 2) , I see its apparent KD of MS2 coat protein listed as 0.0167

Looking up CGUCCUGUAGUGAGGAUAUUGUCUCGGAUACGAAACAAGAAGGCACAUGAGGAUCACCCAUGUAAUCAGGACGA [Malc #30 mod 12] (puzzle: Brourd's mod of Exclusion 4) , I see its apparent KD of MS2 coat protein listed as 0.0161

Looking up AAAUAGGCAGGAUAUACAUGAGGAUCACCCAUGUGCCUAUGAAAGGUAAUUUUGAAAGGUAGAAGGGCCUAAAA [ChP 13.04.2015 #4] (puzzle: Exclusion 3) , I see its apparent KD of MS2 coat protein listed as 0.0101

Looking up GUCAUGUUAGGAUAUCUGGCAUGUGACUUCGGUCACUGUCCAGAGAAGGAACAUGAGGAUCACCCAUGUUGGAC [Ex4-3: 54] (puzzle: Exclusion 4) , I see its apparent KD of MS2 coat protein listed as 0.0482
